# assay_notes: qHTS profiling of the MIPE4 collection as inhibitors of Plasmodium falciparum (HB3) proliferation (AID 743347);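 note: plate controls were DMSO vehicle wells for no effect and artemisinin wells for full effect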
# reported_conditions: P. falciparum HB3 in erythrocytes, SYBR Green DNA, 72 h; at 28.5 µM (top of the series) unless noted
# Protocol: Plasmodium falciparum is a virulent malarial parasite that kills 1-2 million people worldwide each year. […] Because mature erythrocytes lack DNA, only Plasmodium-derived DNA is detected. The SYBR Green viability assay was adapted from a method described previously (Plouffe et al., 2008). […] The following morning, fluorescence intensity at 485(14) nm excitation and 535(25) nm emission wavelengths was measured on an EnVision (Perkin Elmer) plate reader. […]
API: label(entry) gives class 1 if the entry's growth, % of control is strictly smaller than 10%; on equality or larger values it gives class 0.

Please review the following examples before continuing.
>>> print(df.to_string())
                                   compound    label
0  N#CC(c1ccc(Cl)cc1)c1c(Cl)cc(-n2ncc(=O)[nH]c2=O)cc1Cl (stereo not drawn)  class 1
1  C[C@@H](O[C@H]1OCCN(Cc2n[nH]c(=O)[nH]2)[C@@H]1c1ccc(F)cc1)c1cc(C(F)(F)F)cc(C(F)(F)F)c1  class 0
2     NCC1CCC(C(=O)O)CC1 (stereo not drawn)  class 0
3  COc1cc([C@@H]2c3cc4c(cc3[C@@H](O[C@@H]3O[C@@H]5CO[C@@H](C)O[C@@H]5[C@H](O)[C@@H]3O)[C@H]3COC(=O)[C@H]23)OCO4)cc(OC)c1O  class 1
4  CC1CNc2c(cccc2S(=O)(=O)N[C@@H](CCCN=C(N)N)C(=O)N2CC[C@@H](C)C[C@@H]2C(=O)O)C1 (stereo partly drawn)  class 0
5  CNC(=O)c1cc(Oc2ccc(NC(=O)Nc3ccc(Cl)c(C(F)(F)F)c3)c(F)c2)ccn1  class 1

Turning to the following compound.
Ask: Please state whether growth, % of control is below 10% for Cc1ccc(C(=O)N(CCCN)[C@@H](c2nc3cc(Cl)ccc3c(=O)n2Cc2ccccc2)C(C)C)cc1
Reply: class 1
